Below: a set of entries, each annotated with reported CC50 at 24 h.
- Protocol text: Cytotoxicity assay with HepG2 (alamarBlue)
- Type: cell-based, human
- Test settings: human, HepG2 cells, dose that kills 50% of cells; 2–100 μM, 1 h with compound then 24 h, alamarBlue; read-out: ED50 HepG2
Square brackets hold non-standard residues; d marks the D form. Peptide text beside a SMILES is read from it. Nspe = C[C@H](NCC(=O)O)c1ccccc1; Nlys = NCCCCNCC(=O)O
Give me the value, and tack the unit on after it.

// solved cases for CC50 at 24 h follow
| Compound | CC50 at 24 h |
| --- | --- |
| C[C@@H](c1ccccc1)N(CC(N)=O)C(=O)CN(C(=O)CN(CCCCN)C(=O)CN(Cc1ccc(F)cc1)C(=O)CN(Cc1ccc(F)cc1)C(=O)CN(CCCCN)C(=O)CN(C(=O)CN(C(=O)CNCCCCN)[C@@H](C)c1ccccc1)[C@@H](C)c1ccccc1)[C@@H](C)c1ccccc1 [Peptoid 29] | 43 µM |
| C[C@@H](c1ccccc1)N(CC(N)=O)C(=O)CN(C(=O)CN(CCCCN)C(=O)CN(C(=O)CN(C(=O)CN(CCCCN)C(=O)CN(C(=O)CN(C(=O)CN(CCCCN)C(=O)CN(C(=O)CN(C(=O)CNCCCCN)[C@@H](C)c1ccccc1)[C@@H](C)c1ccccc1)[C@@H](C)c1ccccc1)[C@@H](C)c1ccccc1)[C@@H](C)c1ccccc1)[C@@H](C)c1ccccc1)[C@@H](C)c1ccccc1 [Peptoid 13, (NLysNspeNspe)4] (H-[Nlys][Nspe][Nspe][Nlys][Nspe][Nspe][Nlys][Nspe][Nspe][Nlys][Nspe][Nspe]-NH2) | 29 µM |

Okay, now this compound:
Bench note: what CC50 at 24 h did C[C@@H](c1ccccc1)N(CC(N)=O)C(=O)CN(Cc1ccc(F)cc1)C(=O)CN(CCCCN)C(=O)CN(C(=O)CN(Cc1ccc(F)cc1)C(=O)CN(CCCCN)C(=O)CN(C(=O)CN(Cc1ccc(F)cc1)C(=O)CNCCCCN)[C@@H](C)c1ccccc1)[C@@H](C)c1ccccc1 [Peptoid 27, (NLysNpfbNspe)3] show? 36 µM

* * *

- Protocol text: Cytotoxicity assay with HepG2 (alamarBlue)
- Assay type: cell-based, human
- Test settings: human, HepG2 cells, ED50 HepG2
Square brackets hold non-standard residues; d marks the D form. Peptide text beside a SMILES is read from it. Gly(Nα-4-Cl-benzyl) = O=C(O)CNCc1ccc(Cl)cc1; N(4-F-Bzl)Gly = O=C(O)CNCc1ccc(F)cc1; Nlys = NCCCCNCC(=O)O
Lab note: compare CC50 at 24 h with 20 µM, writing criterion met if less and criterion not met if equal or more.

| Compound | Label |
| --- | --- |
| NCCCCNCC(=O)N(CC(=O)N(CC(=O)N(CCCCN)CC(=O)N(CC(=O)N(CC(=O)N(CCCCN)CC(=O)N(CC(=O)N(CC(=O)N(CCCCN)CC(=O)N(CC(=O)N(CC(N)=O)Cc1cccc(F)c1)Cc1cccc(F)c1)Cc1cccc(F)c1)Cc1cccc(F)c1)Cc1cccc(F)c1)Cc1cccc(F)c1)Cc1cccc(F)c1)Cc1cccc(F)c1 [Peptoid 24, (NLysNmfbNmfb)4] | criterion met |
| CCCCCNCC(=O)N(CC(=O)N(CC(=O)N(CCCCC)CC(=O)N(CC(=O)N(CC(=O)N(CCCCN)CC(=O)N(CC(=O)N(CC(=O)N(CCCCN)CC(=O)N(CC(=O)N(CC(N)=O)[C@@H](C)c1ccccc1)[C@@H](C)c1ccccc1)[C@@H](C)c1ccccc1)[C@@H](C)c1ccccc1)[C@@H](C)c1ccccc1)[C@@H](C)c1ccccc1)[C@@H](C)c1ccccc1)[C@@H](C)c1ccccc1 [Peptoid 31, (NamyNspeNspe)2(NLysNspeNspe)2] | criterion met |
| COc1ccc(CN(CC(N)=O)C(=O)CN(Cc2ccc(OC)cc2)C(=O)CN(CCCCN)C(=O)CN(Cc2ccc(OC)cc2)C(=O)CN(Cc2ccc(OC)cc2)C(=O)CN(CCCCN)C(=O)CN(Cc2ccc(OC)cc2)C(=O)CN(Cc2ccc(OC)cc2)C(=O)CN(CCCCN)C(=O)CN(Cc2ccc(OC)cc2)C(=O)CN(Cc2ccc(OC)cc2)C(=O)CNCCCCN)cc1 [Peptoid 19, (NLysNpmbNpmb)4] | criterion not met |
| NCCCCNCC(=O)N(CC(=O)N(CC(=O)N(CCCCN)CC(=O)N(CC(=O)N(CC(=O)N(CCCCN)CC(=O)N(CC(=O)N(CC(N)=O)Cc1ccc(Cl)cc1)Cc1ccc(Cl)cc1)Cc1ccc(Cl)cc1)Cc1ccc(Cl)cc1)Cc1ccc(Cl)cc1)Cc1ccc(Cl)cc1 [Peptoid 21, (NLysNpcbNpcb)3] (H-[Nlys][Gly(Nα-4-Cl-benzyl)][Gly(Nα-4-Cl-benzyl)][Nlys][Gly(Nα-4-Cl-benzyl)][Gly(Nα-4-Cl-benzyl)][Nlys][Gly(Nα-4-Cl-benzyl)][Gly(Nα-4-Cl-benzyl)]-NH2) | criterion not met |

Please determine if NCCCCNCC(=O)N(CC(=O)N(CC(=O)N(CCCCN)CC(=O)N(CC(=O)N(CC(=O)N(CCCCN)CC(=O)N(CC(=O)N(CC(N)=O)Cc1ccc(F)cc1)Cc1ccc(F)cc1)Cc1ccc(F)cc1)Cc1ccc(F)cc1)Cc1ccc(F)cc1)Cc1ccc(F)cc1 [Peptoid 23, (NLysNpfbNpfb)3] (H-[Nlys][N(4-F-Bzl)Gly][N(4-F-Bzl)Gly][Nlys][N(4-F-Bzl)Gly][N(4-F-Bzl)Gly][Nlys][N(4-F-Bzl)Gly][N(4-F-Bzl)Gly]-NH2) is below 20 µM in terms of CC50 at 24 h. criterion not met

Please determine if NCCCCNCC(=O)N(CC(=O)N(CC(=O)N(CCCCN)CC(=O)N(CC(=O)N(CC(=O)N(CCCCN)CC(=O)N(CC(=O)N(CC(N)=O)Cc1cccc(F)c1)Cc1cccc(F)c1)Cc1cccc(F)c1)Cc1cccc(F)c1)Cc1cccc(F)c1)Cc1cccc(F)c1 [Peptoid 25, (NLysNmfbNmfb)3] is below 20 µM in terms of CC50 at 24 h. criterion not met

Please determine if C[C@@H](c1ccccc1)N(CC(N)=O)C(=O)CN(Cc1ccc(F)cc1)C(=O)CN(CCCCN)C(=O)CN(C(=O)CN(Cc1ccc(F)cc1)C(=O)CN(CCCCN)C(=O)CN(C(=O)CN(Cc1ccc(F)cc1)C(=O)CN(CCCCN)C(=O)CN(C(=O)CN(Cc1ccc(F)cc1)C(=O)CNCCCCN)[C@@H](C)c1ccccc1)[C@@H](C)c1ccccc1)[C@@H](C)c1ccccc1 [Peptoid 26, (NLysNpfbNspe)4] is below 20 µM in terms of CC50 at 24 h. criterion not met
